- Read-out: CYP2C9 (gene 1559)
- run.description: LTEA_HepaRG_CYP2C9: Life Technologies and Expression Analysis (LTEA) Assay for CYP2C9 using HepaRG (AID 2283484)
- protocol.conditions: mRNA level, 48 h; actives raise or lower the signal
Active and inactive are the calls of the source. The calls were made as follows: active = hit-call score of the fitted dose curve at least 0.9, where 1 is the maximum; inactive = score below 0.9.
Permitted responses: active, inactive

Worked examples follow.
- CC(=O)OCCC(C)C: inactive
- Cn1cnc([N+](=O)[O-])c1Sc1ncnc2nc[nH]c12: active
- CC(O)CN(CCN(CC(C)O)CC(C)O)CC(C)O (stereo not drawn): inactive
- CC1=CC(=O)CC(C)(C)C1: inactive
- COC(=O)CC(=O)OC: inactive
- CCCC(=O)OCC: inactive
- O=C(OC[C@H]1O[C@@H](OC(=O)c2cc(O)c(O)c(OC(=O)c3cc(O)c(O)c(O)c3)c2)[C@H](OC(=O)c2cc(O)c(O)c(OC(=O)c3cc(O)c(O)c(O)c3)c2)[C@@H](OC(=O)c2cc(O)c(O)c(OC(=O)c3cc(O)c(O)c(O)c3)c2)[C@@H]1OC(=O)c1cc(O)c(O)c(OC(=O)c2cc(O)c(O)c(O)c2)c1)c1cc(O)c(O)c(OC(=O)c2cc(O)c(O)c(O)c2)c1: active

Let's switch to this molecule now.
Prompt: Lab log entry: O=C1CCCCCN1 — outcome as called in the assay?
Completion: inactive

* * *

- Read-out: NAD(P)H dehydrogenase [quinone] 1 (NQO1), NQO1 (gene 1728)
- run.description: LTEA_HepaRG_NQO1: Life Technologies and Expression Analysis (LTEA) Assay for NAD(P)H dehydrogenase [quinone] 1 (NQO1) using HepaRG (AID 2283526)
- protocol.conditions: mRNA level, 48 h; actives raise or lower the signal
Calls of active or inactive are those of the source. How the source made its calls: active means hit-call score of the fitted dose curve at least 0.9, where 1 is the maximum; inactive means score below 0.9.
observed.property: AC50

Answered cases to consult:
- NC(=O)NO: inactive
- C1N2CN3CN1CN(C2)C3: inactive
- C=CC(=C)CCC=C(C)C: inactive
- Cc1ccc(N)cc1O: inactive
- CCOCCOCCOCCO: inactive
- Nc1ccc(Nc2ccccc2)cc1: inactive
- COc1cccc(-c2ccc(/C=C\CN3CCCCCC3)cc2Cl)c1: inactive
- CCOC(=O)c1ccc(C2CCC(NC[C@H](O)COc3ccc(O)c(NS(C)(=O)=O)c3)CC2)cc1 (stereo partly drawn): inactive
- CCn1nc(Cc2ccccc2)cc1C1CCN(C[C@H]2C[C@H](N(C)[C@@H](C(=O)O)C(C)C)C[C@@H]2c2cccc(F)c2)CC1: inactive
- CCCCCCCCCCCCCCCO: inactive

Prompt: Return reported AC50; argument: O=C1CCC(N2C(=O)c3ccccc3C2=O)C(=O)N1 (stereo not drawn)
Completion: inactive

Prompt: If you can, please state the reported AC50 value of Oc1ccc2c(c1)-c1ccccc1C2 .
Completion: inactive

Prompt: Reported AC50, molecule Cn1c(=O)cc(Oc2ccc(F)cc2F)c2cnc(NCC(C)(C)O)nc21 : ____
Completion: inactive

Prompt: For the molecule shown here, C=CCCCCCCCCC(=O)O , give the reported AC50.
Completion: inactive

Prompt: Item CNS(=O)(=O)c1cc(C(=O)N2CCC(CCN3C4CCC3CC(n3c(C)nc5ccccc53)C4)(c3cccc(F)c3)CC2)c(Cl)cc1F (stereo not drawn) has what recorded AC50?
Completion: inactive

Prompt: What does the data say about its AC50? Entry: CC(C)c1cccc(C(C)C)c1N1C(=O)c2ccc(O)cc2C1=O
Completion: inactive

Prompt: Which AC50 value is on record for CC(=O)OCCC(C)C ?
Completion: inactive

* * *

- Read-out: CYP4A11 (gene 1579)
- run.description: LTEA_HepaRG_CYP4A11: Life Technologies and Expression Analysis (LTEA) Assay for CYP4A11 using HepaRG (AID 2283486)
- protocol.conditions: mRNA level, 48 h; actives raise or lower the signal
The source made the active and inactive calls. Rule for the calls: active = hit-call score of the fitted dose curve at least 0.9, where 1 is the maximum; inactive = score below 0.9.
Assign a class; possible classes are Y = active, N = inactive

Please review the entries below; each comes with its answer.
* O=C(O)c1cccc(Oc2ccccc2)c1 | Y
* CC(C)CC(C)(O)C#CC(C)(O)CC(C)C (stereo unspecified) | Y
* Cc1ccc(C)c(O)c1 | N
* O=C1CCC(N2C(=O)c3ccccc3C2=O)C(=O)N1 (stereo unspecified) | N
* CCN(C(=O)c1cc(C)cc(OC[C@H](C)Nc2ccncc2)c1)C(C)C | Y

Shift focus to the following entry.
Prompt: Dear all, I need the recorded test outcome for CCCN(C1CCN(C(=O)C2CCNCC2)CC1)[C@@H]1CCc2ccc(OC)cc2C1 , thank you.
Completion: Y

* * *

- Read-out: HGF (gene 3082)
- run.description: LTEA_HepaRG_HGF: Life Technologies and Expression Analysis (LTEA) Assay for Hepatocyte Growth Facto (HGF) using HepaRG (AID 2283505)
- protocol.conditions: mRNA level, 48 h; actives raise or lower the signal
Active and inactive are the calls of the source. Rule for the calls: active = hit-call score of the fitted dose curve at least 0.9, where 1 is the maximum; inactive = score below 0.9.
Please state which outcome applies, choosing from 1.0 (active), 0.0 (inactive)

Field: example entries. Status: answers known.
* CCCCCCCCCCCCc1ccccc1 | 0.0
* Cc1ccc(C)c(O)c1 | 0.0
* CC(C)=CCC/C(C)=C\CO | 0.0

Prompt: Hi, do you know how CCCC(=O)OCC came out in this test?
Completion: 0.0

Prompt: How did this test come out for COc1ccc(/C=C/S(=O)(=O)NC(=O)c2ccc(C)cc2Cl)cc1 ?
Completion: 0.0

Prompt: For this molecule, state the assay outcome: CCN(C(=O)c1cc(C)cc(OC[C@H](C)Nc2ccncc2)c1)C(C)C
Completion: 1.0

Prompt: // param item: COCCOCCOCCOC ; yields the recorded call
Completion: 0.0

Prompt: Any idea what this test logged for C1N2CN3CN1CN(C2)C3 ?
Completion: 0.0

* * *

- Read-out: C-C motif chemokine 2 (Homo sapiens) (UniProt P13500)
- run.description: BSK_KF3CT_MCP1: BioMAP Diversity Plus: KF3CT Assay for Monocyte Chemoattractant Protein 1 (MCP1/CCL2) Biomarker Activity (AID 2283073)
- protocol.conditions: primary human keratinocytes with fibroblasts; actives raise or lower the signal
Activity calls are given as the source filed them. The calls were made as follows: active = hit-call score of the fitted dose curve at least 0.9, where 1 is the maximum; inactive = score below 0.9.
Your response should consist of one outcome taken from 1 (active), 0 (inactive)

Prompt: Recorded test call requested for CCCCCCCCCCCCCCCO
Completion: 0

Prompt: Test call, this compound: NC(=O)NO
Completion: 0

Prompt: Dear colleague, could you share the recorded outcome for CNCc1ccc(NC(=O)c2c[nH]c3c2C(=O)CCC3)cc1 when you have a moment?
Completion: 0

Prompt: // param item: C=CC(=C)CCC=C(C)C ; yields the recorded call
Completion: 0

Prompt: Any idea what this test logged for Fc1ccccc1[C@@H](F)COC1CCC(Nc2ncnc3[nH]ncc23)CC1 (stereo partly specified) ?
Completion: 0

Prompt: Please share the test call associated with CCOC(=O)COc1ccc2c(c1)CC(NCC(O)c1cccc(Cl)c1)CC2 (stereo unspecified) .
Completion: 0

* * *

- Read-out: DNA damage-inducible transcript 3 (DDIT3), DDIT3 (gene 1649)
- run.description: LTEA_HepaRG_DDIT3: Life Technologies and Expression Analysis (LTEA) Assay for DNA damage-inducible transcript 3 (DDIT3) using HepaRG (AID 2283488)
- protocol.conditions: mRNA level, 48 h; actives raise or lower the signal
Calls of active or inactive are those of the source. The calls were made as follows: active = hit-call score of the fitted dose curve at least 0.9, where 1 is the maximum; inactive = score below 0.9.
Parameter call: string, one of yes (1) (active), no (0) (inactive)

* CCNc1ccccc1 | no (0)
* O=C(O)CC(O)C(=O)O (configuration not stated) | no (0)
* C=CCCCCCCCCC(=O)O | no (0)
* COC(=O)c1c(Cl)c(Cl)c(C(=O)OC)c(Cl)c1Cl | no (0)
* CCN(C(=O)c1cc(C)cc(OC[C@H](C)Nc2ccncc2)c1)C(C)C | yes (1)

Prompt: Answer briefly: the call reported for COc1cccc(-c2ccc(/C=C\CN3CCCCCC3)cc2Cl)c1 in this assay.
Completion: yes (1)

Prompt: Which result was noted for this compound in the test: CC(C)CCCCCCCOC(=O)CCCCC(=O)OCCCCCCCC(C)C
Completion: no (0)

Prompt: Given CC(=O)OC[C@H]1O[C@@](COC(C)=O)(O[C@H]2O[C@H](COC(C)=O)[C@@H](OC(C)=O)[C@H](OC(C)=O)[C@H]2OC(C)=O)[C@@H](OC(C)=O)[C@@H]1OC(C)=O , state the outcome it received in this test.
Completion: no (0)

Prompt: Short answer needed: outcome of this test for COC(=O)c1ccccc1O ?
Completion: no (0)

* * *

- run.description: APR_HepG2_p53Act_24hr: Apredica 24-hour HepG2 Assay for p53 Activation (AID 2282913);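 also: p53 protein immunofluorescence averaged per cell in HepG2 with Hoechst nuclei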
- protocol.conditions: high-content imaging, actives raise or lower the signal
Active and inactive are the calls of the source. The calls were made as follows: active = hit-call score of the fitted dose curve at least 0.9, where 1 is the maximum; inactive = score below 0.9.
Select the matching outcome among label 1 (active), label 0 (inactive)

Worked set:
- O=C(OC[C@H]1O[C@@H](OC(=O)c2cc(O)c(O)c(OC(=O)c3cc(O)c(O)c(O)c3)c2)[C@H](OC(=O)c2cc(O)c(O)c(OC(=O)c3cc(O)c(O)c(O)c3)c2)[C@@H](OC(=O)c2cc(O)c(O)c(OC(=O)c3cc(O)c(O)c(O)c3)c2)[C@@H]1OC(=O)c1cc(O)c(O)c(OC(=O)c2cc(O)c(O)c(O)c2)c1)c1cc(O)c(O)c(OC(=O)c2cc(O)c(O)c(O)c2)c1: label 1
- COCCOCCOCCOC: label 0
- COc1cccc(-c2ccc(/C=C\CN3CCCCCC3)cc2Cl)c1: label 1

We now examine a further compound.
Prompt: What did the test return for CCOCCOCCOCCO ?
Completion: label 0
